Give measured clearance for each item. Keep answers brief.
assay protocol: Clearance in Sprague-Dawley rat at 2 mg/kg, iv or 5 mg/kg, po
Assay type: ADME, organism-based
study conditions: in vivo
Output spec: scalar in mL/min/kg, unitless text.

Recorded clearance of COC(=O)N[C@H](C(=O)N1CCC[C@H]1c1ncc(-c2ccc3c(c2)OC(c2ccc(Cl)cc2)n2c-3cc3cc(-c4cnc([C@@H]5CCCN5C(=O)[C@@H](NC(=O)OC)C(C)C)[nH]4)ccc32)[nH]1)C(C)C (stereo not given in full) , please.
10

Recorded clearance of COC(=O)N[C@H](C(=O)N1CCC[C@H]1c1ncc(-c2ccc3c(c2)OC(c2cc(F)cc(F)c2)n2c-3cc3cc(-c4cnc([C@@H]5CCCN5C(=O)[C@@H](NC(=O)OC)C(C)C)[nH]4)ccc32)[nH]1)C(C)C (stereo not given in full) , please.
9

Recorded clearance of COC(=O)N[C@H](C(=O)N1CCC[C@H]1c1ncc(-c2ccc3c(c2)OC(c2cccc(Cl)c2)n2c-3cc3cc(-c4cnc([C@@H]5CCCN5C(=O)[C@@H](NC(=O)OC)C(C)C)[nH]4)ccc32)[nH]1)C(C)C (stereo not given in full) , please.
8

Recorded clearance of COC(=O)N[C@H](C(=O)N1CCC[C@H]1c1ncc(-c2ccc3c(c2)OC(c2cccc(F)c2)n2c-3cc3cc(-c4cnc([C@@H]5CCCN5C(=O)[C@@H](NC(=O)OC)C(C)C)[nH]4)ccc32)[nH]1)C(C)C (stereo not given in full) , please.
7

Recorded clearance of COC(=O)N[C@H](C(=O)N1CCC[C@H]1c1ncc(-c2ccc3c(c2)OC(c2ccccc2F)n2c-3cc3cc(-c4cnc([C@@H]5CCCN5C(=O)[C@@H](NC(=O)OC)C(C)C)[nH]4)ccc32)[nH]1)C(C)C (stereo not given in full) , please.
12
